Test: Rat liver microsome incubation
Assay type: in vitro ADME
Reported Conditions: intrinsic clearance; rat liver microsomes 1.0 mg prot/mL, prodrug 10 μM, 37° C.
Quick list: Rat microsomes Clearance per entry.

Q: Look at this molecule and give its reported Rat microsomes Clearance. CC(C)(C)NC(=O)COC(=O)[C@H]1CCCN1C(=O)CCCCC(=O)N1CCC[C@@H]1C(=O)OCC(=O)NC(C)(C)C
A: 625 ul/min/mg microsomal protein

Continuing:
Q: Entry COC(=O)[C@H]1CCCN1C(=O)CCCCC(=O)N1CCC[C@@H]1C(=O)OC : reported Rat microsomes Clearance = ?
A: 9 ul/min/mg microsomal protein

Q: Also need CCCOC(=O)[C@H]1CCCN1C(=O)CCCCC(=O)N1CCC[C@@H]1C(=O)OCCC , thanks.
A: 253 ul/min/mg microsomal protein

Q: Quick one: CN(C)C(=O)COC(=O)[C@H]1CCCN1C(=O)CCCCC(=O)N1CCC[C@@H]1C(=O)OCC(=O)N(C)C
A: 7 ul/min/mg microsomal protein

Q: Ok, now CCOC(=O)[C@H]1CCCN1C(=O)CCCCC(=O)N1CCC[C@@H]1C(=O)OCC
A: 46 ul/min/mg microsomal protein

Q: Also O=C(COC(=O)[C@H]1CCCN1C(=O)CCCCC(=O)N1CCC[C@@H]1C(=O)OCC(=O)NC1CC1)NC1CC1 , if possible.
A: 36 ul/min/mg microsomal protein

Q: // next record C=CCNC(=O)COC(=O)[C@H]1CCCN1C(=O)CCCCC(=O)N1CCC[C@@H]1C(=O)OCC(=O)NCC=C
A: 18 ul/min/mg microsomal protein

---

Entries annotated with measured Rat microsomes Clearance
Test: Rat liver microsome incubation
Format: in vitro ADME
Reported Conditions: intrinsic clearance; rat liver microsomes 1.0 mg prot/mL, prodrug 10 μM, 37° C.

Recorded results for 2 molecules are shown here.
Q: What Rat microsomes Clearance value was documented for this molecule, CC(C)NC(=O)COC(=O)[C@H]1CCCN1C(=O)CCCCC(=O)N1CCC[C@@H]1C(=O)OCC(=O)NC(C)C ?
A: 82 ul/min/mg microsomal protein

Q: Let us now turn to NC(=O)COC(=O)[C@H]1CCCN1C(=O)CCCCC(=O)N1CCC[C@@H]1C(=O)OCC(N)=O
A: 5 ul/min/mg microsomal protein

Others:
Q: Name the reported Rat microsomes Clearance value associated with the molecule CCN(CC)C(=O)COC(=O)[C@H]1CCCN1C(=O)CCCCC(=O)N1CCC[C@@H]1C(=O)OCC(=O)N(CC)CC
A: 9 ul/min/mg microsomal protein

---

Test: Human liver microsome incubation
Type: in vitro ADME
Reported Conditions: maximal achievable bioavailability (1−E), extrapolated from human microsomal clearance
Each entry falls in a class defined on Human microsomes MAB %; the bands are LOW (below 50%), MEDIUM (50% to below 90%), HIGH (90% or more)

Recorded results for 5 molecules are shown here.
Q: Textbook exercise: identify the category of the molecule given here, NC(=O)COC(=O)[C@H]1CCCN1C(=O)CCCCC(=O)N1CCC[C@@H]1C(=O)OCC(N)=O , according to its measured value.
A: HIGH

Q: And for O=C(COC(=O)[C@H]1CCCN1C(=O)CCCCC(=O)N1CCC[C@@H]1C(=O)OCC(=O)NC1CC1)NC1CC1 ?
A: MEDIUM

Q: Check CN(C)C(=O)COC(=O)[C@H]1CCCN1C(=O)CCCCC(=O)N1CCC[C@@H]1C(=O)OCC(=O)N(C)C too.
A: HIGH

Q: Now the molecule CC(C)(C)NC(=O)COC(=O)[C@H]1CCCN1C(=O)CCCCC(=O)N1CCC[C@@H]1C(=O)OCC(=O)NC(C)(C)C
A: LOW

Q: Try this molecule too: C=CCNC(=O)COC(=O)[C@H]1CCCN1C(=O)CCCCC(=O)N1CCC[C@@H]1C(=O)OCC(=O)NCC=C
A: LOW

Continuing:
Q: Would you mind sorting CCCOC(=O)[C@H]1CCCN1C(=O)CCCCC(=O)N1CCC[C@@H]1C(=O)OCCC into the appropriate category?
A: LOW

Q: Another: CCOC(=O)[C@H]1CCCN1C(=O)CCCCC(=O)N1CCC[C@@H]1C(=O)OCC
A: MEDIUM
